- Tested on: experimental shock
- experiment-description: Effect on experimental shock (endotoxin-induced), survival ratio
- Type: in vivo, ICR-mice
- run-conditions: dose of 30 mg/kg intraperitoneally 15 minutes before endotoxin 40 mg/kg, mouse
Decision: Effect on experimental shock (Survival ratio (%) after 24 hours) compared against 70%; not below it gives label 1, below it gives label 0.

compound: NCC1CCC(C(=O)NC(Cc2ccc(OCc3ccccc3)cc2)C(=O)Nc2ccncc2)CC1 (stereo not shown) [Compound 23]
category-label: label 0

compound: NC[C@H]1CC[C@H](C(=O)N[C@@H](Cc2ccc(OCc3ccccc3)cc2)C(=O)Nc2ccncc2)CC1 [Compound 4]
category-label: label 1

compound: CC(=O)c1ccc(NC(=O)[C@H](Cc2ccccc2)NC(=O)[C@H]2CC[C@H](CN)CC2)cc1 [Compound 2]
category-label: label 0

compound: CC(=O)c1ccc(NC(=O)[C@H](Cc2ccc(OCc3cccc(Cl)c3)cc2)NC(=O)[C@H]2CC[C@H](CN)CC2)cc1 [Compound 3]
category-label: label 0

compound: NC[C@H]1CC[C@H](C(=O)N[C@@H](Cc2ccc(OCc3ccccc3)cc2)C(=O)Nc2cccnc2)CC1 [Compound 1]
category-label: label 1

Shifting focus to the compound that follows.
Q: For this compound, is measured Effect on experimental shock (Survival ratio (%) after 24 hours) 70% or higher? NC[C@H]1CC[C@H](C(=O)NC(Cc2cccc(Oc3ccccc3)c2)C(=O)Nc2ccnc(Cl)c2)CC1 (mixture of isomers) [Compound 11]
A: label 1

###

- target-or-test-system: human plasmin (Homo sapiens)
- Construct: 50 µl of 0.2 casein units/ml of human plasmin
- Sequence (P00747 581-810 limits assumed): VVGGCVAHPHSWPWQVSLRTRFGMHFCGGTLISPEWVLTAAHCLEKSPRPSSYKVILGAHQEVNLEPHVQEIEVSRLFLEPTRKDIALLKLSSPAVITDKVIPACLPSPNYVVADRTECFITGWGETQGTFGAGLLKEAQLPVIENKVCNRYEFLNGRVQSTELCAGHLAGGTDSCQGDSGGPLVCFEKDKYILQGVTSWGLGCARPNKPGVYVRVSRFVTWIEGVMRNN
- Sequence (P00747 97-580 partner limits assumed): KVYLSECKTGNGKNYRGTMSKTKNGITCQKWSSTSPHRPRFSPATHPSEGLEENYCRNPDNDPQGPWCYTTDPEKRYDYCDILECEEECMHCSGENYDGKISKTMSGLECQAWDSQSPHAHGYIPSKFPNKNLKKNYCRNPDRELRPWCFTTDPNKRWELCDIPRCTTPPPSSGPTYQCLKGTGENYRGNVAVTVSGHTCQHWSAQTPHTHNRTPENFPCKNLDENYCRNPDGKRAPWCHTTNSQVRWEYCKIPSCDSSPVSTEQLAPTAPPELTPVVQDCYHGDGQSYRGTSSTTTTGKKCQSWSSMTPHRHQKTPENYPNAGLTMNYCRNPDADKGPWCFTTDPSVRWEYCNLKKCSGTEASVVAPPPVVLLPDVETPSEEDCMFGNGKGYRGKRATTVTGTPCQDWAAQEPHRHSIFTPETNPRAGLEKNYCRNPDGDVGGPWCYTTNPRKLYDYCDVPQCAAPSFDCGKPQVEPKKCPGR
- experiment-description: Anti-plasmin activity: inhibition of fibrinolysis (fibrin clot lysis time)
- Assay type: biochemical
- run-conditions: concentration giving a fibrin clot lysis time twice that of control, 37°C, pH7.4; read-out: Plasmin Fibrin (I50)
The entries below come with measured IC50 values attached.
The reply should read as a number followed by its unit.

compound: NC[C@H]1CC[C@H](C(=O)N[C@@H](Cc2ccc(OCc3ccccc3)cc2)C(=O)Nc2ccncc2)CC1 [Compound 4]
IC50: 0.7 µM
--
compound: CC(=O)c1ccc(NC(=O)[C@H](Cc2ccccc2)NC(=O)[C@H]2CC[C@H](CN)CC2)cc1 [Compound 2]
IC50: 21 µM
--
compound: NC[C@H]1CC[C@H](C(=O)N[C@@H](Cc2ccc(OCc3ccccc3)cc2)C(=O)Nc2ccc(CCC(=O)O)cc2)CC1 [Compound 16]
IC50: 9 µM
--
compound: NCC1CCC(C(=O)NC(Cc2ccc(OCc3ccccn3)cc2)C(=O)Nc2ccc(C(=O)O)cc2)CC1 (stereo not shown) [Compound 20]
IC50: 32 µM
--
compound: NC[C@H]1CC[C@H](C(=O)NC(Cc2cccc(Oc3ccccc3)c2)C(=O)Nc2ccnc(Cl)c2)CC1 (mixture of isomers) [Compound 11]
IC50: 10 µM

Q: Give recorded IC50. NCC1CCC(C(=O)NC(Cc2ccc(OCc3ccccc3)cc2)C(=O)Nc2ccncc2)CC1 (stereo not shown) [Compound 23]
A: 140 µM

Q: Give recorded IC50. CC(=O)c1ccc(NC(=O)[C@@H](Cc2ccc(OCc3ccccn3)cc2)NC(=O)C2CCC(CN)CC2)cc1 (stereo partly shown) [Compound 24]
A: 240 µM

###

- experiment-description: Measurement of half life in blood
- Type: in vivo
- run-conditions: rat, iv; administered to the tail vein, SD-rats, plasma, HPLC
Decision: half-life compared against 10 min; not below it gives Satisfied, below it gives Not satisfied.

Examples from the recorded data:
molecule: NCC1CCC(C(=O)NC(Cc2ccc(OCc3ccccn3)cc2)C(=O)Nc2ccc(C(=O)O)cc2)CC1 (stereo not drawn)
category-label: Satisfied
//
molecule: CC(=O)c1ccc(NC(=O)[C@H](Cc2ccc(OCc3ccccn3)cc2)NC(=O)[C@H]2CC[C@H](CN)CC2)cc1
category-label: Satisfied
//
molecule: NC[C@H]1CC[C@H](C(=O)N[C@@H](Cc2ccc(OCc3ccccc3)cc2)C(=O)Nc2ccc(CC(=O)O)cc2)CC1
category-label: Satisfied
//
molecule: NC[C@H]1CC[C@H](C(=O)N[C@@H](Cc2ccc([N+](=O)[O-])cc2)C(=O)Nc2ccc(C(=O)c3ccccc3)cc2)CC1
category-label: Not satisfied

Shifting focus to the molecule that follows.
Q: For this molecule, is measured half-life 10 min or higher? NC[C@H]1CC[C@H](C(=O)N[C@@H](Cc2ccc(OCc3ccccc3)cc2)C(=O)Nc2cccnc2)CC1
A: Satisfied

###

- target-or-test-system: bovine factor Xa (Bos taurus, UniProt P00743)
- Construct: 0.05 ml of 0.3 vial/ml bovine factor Xa
- Sequence (P00743 234-492 limits assumed): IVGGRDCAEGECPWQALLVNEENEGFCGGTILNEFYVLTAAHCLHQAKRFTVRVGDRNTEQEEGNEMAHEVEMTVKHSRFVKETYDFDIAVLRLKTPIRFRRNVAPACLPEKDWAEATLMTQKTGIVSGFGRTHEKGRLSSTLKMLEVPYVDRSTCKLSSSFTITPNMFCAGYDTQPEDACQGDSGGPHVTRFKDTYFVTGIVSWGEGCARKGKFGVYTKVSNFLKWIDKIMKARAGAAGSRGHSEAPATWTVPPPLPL
- Sequence (P00743 41-180 partner limits assumed): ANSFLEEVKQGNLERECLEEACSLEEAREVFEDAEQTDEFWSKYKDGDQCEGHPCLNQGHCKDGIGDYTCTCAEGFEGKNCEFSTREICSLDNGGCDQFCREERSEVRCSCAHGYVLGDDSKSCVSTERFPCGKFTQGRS
- experiment-description: Anti-FXa activity: inhibition of S-2222 degradation
- Assay type: biochemical
- run-conditions: substrate S-2222, 37°C, pH 8.3; read-out: FXa S-2222 (I50)
The entries below come with measured pIC50 values attached.
// pIC50 is dimensionless: -log10 of concentration (M)

Example compounds with recorded pIC50:
compound: NC[C@H]1CC[C@H](C(=O)N[C@@H](Cc2ccc(OCc3ccccc3)cc2)C(=O)Nc2ccc(CC(=O)O)cc2)CC1 [Compound 8]
target-or-test-system: bovine factor Xa (Bos taurus, UniProt P00743)
pIC50: 3.54

compound: NC[C@H]1CC[C@H](C(=O)N[C@@H](Cc2ccc(OCc3ccccc3)cc2)C(=O)Nc2ccncc2)CC1 [Compound 4]
target-or-test-system: bovine factor Xa (Bos taurus, UniProt P00743)
pIC50: 4.05

Shifting focus to the compound that follows.
Q: Give recorded pIC50. CC(=O)c1ccc(NC(=O)[C@H](Cc2ccccc2)NC(=O)[C@H]2CC[C@H](CN)CC2)cc1 [Compound 2]
A: 3.27

###

- target-or-test-system: human plasmin (Homo sapiens)
- Construct: 50 µl of 0.2 casein units/ml of human plasmin
- experiment-description: Anti-plasmin activity: inhibition of S-2251 degradation
- Format: biochemical
- run-conditions: substrate S-2251, 37°C, pH7.4; read-out: Plasmin S-2251 (I50)
- Procedure: ii) Assay method of inhibition of S-2251 degradation The test substance was dissolved in a 0.05 M Tris-HC1 (pH7.4) buffer to make a total volume of 400 µl, and 50 µl of a 3 mM S-2251 solution was added to the solution. The mixture was incubated at 37°C for 5 minutes in an incubator, and after the addition of 50 µl of 0.2 casein units/ml of human plasmin, and incubation at 37°C for 4 minutes, the reaction was terminated by an addition of 50 µl of 50% acetic acid.
recorded-endpoint: pIC50
// pIC50 is dimensionless: -log10 of concentration (M)

Example compounds with recorded pIC50:
compound: CC(=O)c1ccc(NC(=O)[C@H](Cc2ccc(OCc3cccc(Cl)c3)cc2)NC(=O)[C@H]2CC[C@H](CN)CC2)cc1 [Compound 3]
pIC50: 6.10
//
compound: NC[C@H]1CC[C@H](C(=O)N[C@@H](Cc2ccc([N+](=O)[O-])cc2)C(=O)Nc2ccc(C(=O)c3ccccc3)cc2)CC1 [Compound 10]
pIC50: 5.15
//
compound: NC[C@H]1CC[C@H](C(=O)N[C@@H](Cc2ccc(OCc3ccccc3)cc2)C(=O)Nc2cccnc2)CC1 [Compound 1]
pIC50: 5.21
//
compound: CC(=O)c1ccc(NC(=O)[C@H](Cc2ccc(OCc3ccccn3)cc2)NC(=O)[C@H]2CC[C@H](CN)CC2)cc1 [Compound 6]
pIC50: 5.57
//
compound: CC(=O)c1ccc(NC(=O)[C@H](Cc2ccccc2)NC(=O)[C@H]2CC[C@H](CN)CC2)cc1 [Compound 2]
pIC50: 4.44
//
compound: NC[C@H]1CC[C@H](C(=O)NC(Cc2cccc(Oc3ccccc3)c2)C(=O)Nc2ccnc(Cl)c2)CC1 (mixture of isomers) [Compound 11]
pIC50: 4.51

Shifting focus to the compound that follows.
Q: GET pIC50 where system = human plasmin (Homo sapiens) and item = NCC1CCC(C(=O)N[C@H](Cc2ccc([N+](=O)[O-])cc2)C(=O)Nc2ccc(C(=O)c3ccccc3)cc2)CC1 (stereo partly shown) [Compound 25]
A: 3.62

###

- System: experimental shock
- experiment-description: Effect on experimental shock (endotoxin-induced), survival ratio
- Type: in vivo, ICR-mice
- run-conditions: dose of 30 mg/kg intraperitoneally 15 minutes before endotoxin 40 mg/kg, mouse
recorded-endpoint: Effect on experimental shock (Survival ratio (%) after 24 hours)
Dear colleague, please return just the value in %, with no unit written.

Q: Give recorded Effect on experimental shock (Survival ratio (%) after 24 hours). CC(=O)c1ccc(NC(=O)[C@H](Cc2cccc(Oc3ccccc3)c2)NC(=O)[C@H]2CC[C@H](CN)CC2)cc1
A: 90

Q: Give recorded Effect on experimental shock (Survival ratio (%) after 24 hours). NCC1CCC(C(=O)N[C@H](Cc2ccc([N+](=O)[O-])cc2)C(=O)Nc2ccc(C(=O)c3ccccc3)cc2)CC1 (stereo partly shown)
A: 70

Q: Give recorded Effect on experimental shock (Survival ratio (%) after 24 hours). NC[C@H]1CC[C@H](C(=O)NC(Cc2cccc(Oc3ccccc3)c2)C(=O)Nc2ccncc2)CC1 (mixture of isomers)
A: 79

Q: Give recorded Effect on experimental shock (Survival ratio (%) after 24 hours). NC[C@H]1CC[C@H](C(=O)N[C@@H](Cc2ccc([N+](=O)[O-])cc2)C(=O)Nc2ccc(C(=O)c3ccccc3)cc2)CC1
A: 79

meta.source: patent EP0369035A1
